Assay: In vivo pharmacokinetics and brain exposure
Conditions: mouse, brain; mice, 50 mg/Kg IP, 24 hr; read-out: Amount of compound per mg of wet brain tissue
Square brackets hold non-standard residues; d marks the D form. Peptide text beside a SMILES is read from it. * marks the point of attachment. Cyclohexanoyl(1S,3S-3-NH2) = N[C@H]1CCC[C@H](C(=O)*)C1; Trp(5-OH) = N[C@@H](Cc1c[nH]c2ccc(O)cc12)C(=O)O; NH(4-morpholinophenyl) = c1cc(N2CCOCC2)ccc1N*; Bip = N[C@@H](Cc1ccc(-c2ccccc2)cc1)C(=O)O; hArg = N=C(N)NCCCC[C@H](N)C(=O)O
VALUE_TYPE: tissue level at time at 24 h (ng/g)
Give the quantity in ng/g, number only.

So, N=C(N)NCCCC[C@H](NC(=O)[C@H](Cc1ccc(-c2ccccc2)cc1)NC(=O)[C@H](Cc1c[nH]c2ccc(O)cc12)NC(=O)[C@H]1CCC[C@H](N)C1)C(=O)NCC(=O)Nc1ccc(N2CCOCC2)cc1 [Compound 8] ({Cyclohexanoyl(1S,3S-3-NH2)}-[Trp(5-OH)][Bip][hArg]G-{NH(4-morpholinophenyl)}) ? Its tissue level at time at 24 h was 1100

----------
Molecular target: ^13C^ε-Met-labeled EphA4-LBD (Homo sapiens, UniProt P54764, C204A)
Construct: His tag (N); made in house; host or cells: E. coli Rosetta-Gami B(DE3), pET15b
Sequence (P54764 29-209 C204A): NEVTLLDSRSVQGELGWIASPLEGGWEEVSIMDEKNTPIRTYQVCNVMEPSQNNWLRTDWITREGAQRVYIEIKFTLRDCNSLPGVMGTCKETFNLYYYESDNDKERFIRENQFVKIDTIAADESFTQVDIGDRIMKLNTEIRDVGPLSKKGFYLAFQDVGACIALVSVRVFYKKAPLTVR
Experiment: 2D [13C,1H] HSQC NMR chemical shift perturbation of Met resonances
Format: binding
Settings: test ligands at 40 μM, EphA4-LDB at 20 μM; Table 8
From the text: Peptides were synthesized by using standard solid-phase synthesis protocol, using the BAL resin as anchoring for the C-terminal amines. […] 2D [^13C,^1H] correlation NMR spectra measured with such protein targets, collected in absence or presence of test ligands can be used to monitor ligand binding and make, albeit qualitative, determinations on possible conformational changes induced by test ligands on the protein target. […]
Square brackets hold non-standard residues; d marks the D form. Peptide text beside a SMILES is read from it. * marks the point of attachment. Phe(4-(2-MeO-Ph)) = COc1ccccc1-c1ccc(C[C@H](N)C(=O)O)cc1; Cyclohexanoyl(1S,3S-3-NH2) = N[C@H]1CCC[C@H](C(=O)*)C1; Trp(5-OH) = N[C@@H](Cc1c[nH]c2ccc(O)cc12)C(=O)O; NHPh(4-CH2-morpholino) = c1cc(N*)ccc1CN1CCOCC1; NH(4-morpholinophenyl) = c1cc(N2CCOCC2)ccc1N*; hArg = N=C(N)NCCCC[C@H](N)C(=O)O
VALUE_TYPE: Δδ Met 164

>>> reported_value("COc1ccccc1-c1ccc(C[C@H](NC(=O)[C@H](Cc2c[nH]c3ccc(O)cc23)NC(=O)[C@H]2CCC[C@H](N)C2)C(=O)N[C@@H](CCCCNC(=N)N)C(=O)NCC(=O)Nc2ccc(N3CCOCC3)cc2)cc1 [Compound 3] ({Cyclohexanoyl(1S,3S-3-NH2)}-[Trp(5-OH)][Phe(4-(2-MeO-Ph))][hArg]G-{NH(4-morpholinophenyl)})")
"+ (0< + <0.1 ppm)"
>>> reported_value("COc1ccccc1-c1ccc(C[C@H](NC(=O)[C@H](Cc2c[nH]c3ccc(O)cc23)NC(=O)[C@H]2CCC[C@H](N)C2)C(=O)N[C@@H](CCCCNC(=N)N)C(=O)NCC(=O)Nc2ccc(CN3CCOCC3)cc2)cc1 [Compound 2] ({Cyclohexanoyl(1S,3S-3-NH2)}-[Trp(5-OH)][Phe(4-(2-MeO-Ph))][hArg]G-{NHPh(4-CH2-morpholino)})")
"+ (0< + <0.1 ppm)"

----------
Experiment: In vivo pharmacokinetics and brain exposure
Conditions: mouse, plasma; mice, 50 mg/Kg IP, 24 hr; read-out: Plasma drug concentration
Square brackets hold non-standard residues; d marks the D form. Peptide text beside a SMILES is read from it. * marks the point of attachment. Cyclohexanoyl(1S,3S-3-NH2) = N[C@H]1CCC[C@H](C(=O)*)C1; Trp(5-OH) = N[C@@H](Cc1c[nH]c2ccc(O)cc12)C(=O)O; NH(4-morpholinophenyl) = c1cc(N2CCOCC2)ccc1N*; Bip = N[C@@H](Cc1ccc(-c2ccccc2)cc1)C(=O)O; hArg = N=C(N)NCCCC[C@H](N)C(=O)O
VALUE_TYPE: level at 24 h (ng/mL)
Give the quantity in ng/mL, number only.

So, N=C(N)NCCCC[C@H](NC(=O)[C@H](Cc1ccc(-c2ccccc2)cc1)NC(=O)[C@H](Cc1c[nH]c2ccc(O)cc12)NC(=O)[C@H]1CCC[C@H](N)C1)C(=O)NCC(=O)Nc1ccc(N2CCOCC2)cc1 [Compound 8] ({Cyclohexanoyl(1S,3S-3-NH2)}-[Trp(5-OH)][Bip][hArg]G-{NH(4-morpholinophenyl)}) ? Its level at 24 h was 45

----------
Target: recombinant EphA4 ligand binding domain (Homo sapiens, UniProt P54764, C204A)
Construct: His tag (N); made in house; host or cells: E. coli Rosetta-Gami B(DE3), pET15b
Sequence (P54764 29-209 C204A): as above
Assay: Isothermal titration calorimetry (ITC) against EphA4-LBD
Settings: ITC, EphA4-LBD
Square brackets hold non-standard residues; d marks the D form. Peptide text beside a SMILES is read from it. * marks the point of attachment. Phe(4-(2-MeO-Ph)) = COc1ccccc1-c1ccc(C[C@H](N)C(=O)O)cc1; Cyclohexanoyl(1S,3S-3-NH2) = N[C@H]1CCC[C@H](C(=O)*)C1; Trp(5-OMe) = COc1ccc2[nH]cc(C[C@H](N)C(=O)O)c2c1; Trp(5-OH) = N[C@@H](Cc1c[nH]c2ccc(O)cc12)C(=O)O; NHPh(4-CH2-morpholino) = c1cc(N*)ccc1CN1CCOCC1; NH(4-morpholinophenyl) = c1cc(N2CCOCC2)ccc1N*; Bip = N[C@@H](Cc1ccc(-c2ccccc2)cc1)C(=O)O; hArg = N=C(N)NCCCC[C@H](N)C(=O)O; X2 = Fc1cc(N*)ccc1N1CCOCC1; X3 = c1cc(N2CCNCC2)ccc1N*
Task for the reader: assign each of the following compounds its reported AH.
Give the quantity in kcal/mol, number only.

Note to self: AH of COc1ccccc1-c1ccc(C[C@H](NC(=O)[C@H](Cc2c[nH]c3ccc(O)cc23)NC(=O)[C@H]2CCC[C@H](N)C2)C(=O)N[C@@H](CCCCNC(=N)N)C(=O)NCC(=O)Nc2ccc(N3CCOCC3)cc2)cc1 [Compound 3] ({Cyclohexanoyl(1S,3S-3-NH2)}-[Trp(5-OH)][Phe(4-(2-MeO-Ph))][hArg]G-{NH(4-morpholinophenyl)}) with recombinant EphA4 ligand binding domain (Homo sapiens, UniProt P54764, C204A) was -8.92

Note to self: AH of COc1ccccc1-c1ccc(C[C@H](NC(=O)[C@H](Cc2c[nH]c3ccc(O)cc23)NC(=O)[C@H]2CCC[C@H](N)C2)C(=O)N[C@@H](CCCCNC(=N)N)C(=O)NCC(=O)Nc2ccc(CN3CCOCC3)cc2)cc1 [Compound 2] ({Cyclohexanoyl(1S,3S-3-NH2)}-[Trp(5-OH)][Phe(4-(2-MeO-Ph))][hArg]G-{NHPh(4-CH2-morpholino)}) with recombinant EphA4 ligand binding domain (Homo sapiens, UniProt P54764, C204A) was -8.74

Note to self: AH of COc1ccc2[nH]cc(C[C@H](NC(=O)[C@H]3CCC[C@H](N)C3)C(=O)N[C@@H](Cc3ccc(-c4ccccc4OC)cc3)C(=O)N[C@@H](CCCCNC(=N)N)C(=O)NCC(=O)Nc3ccc(CN4CCOCC4)cc3)c2c1 [Compound 5] ({Cyclohexanoyl(1S,3S-3-NH2)}-[Trp(5-OMe)][Phe(4-(2-MeO-Ph))][hArg]G-{NHPh(4-CH2-morpholino)}) with recombinant EphA4 ligand binding domain (Homo sapiens, UniProt P54764, C204A) was -7.00

Note to self: AH of N=C(N)NCCCC[C@H](NC(=O)[C@H](Cc1ccc(-c2ccccc2)cc1)NC(=O)[C@H](Cc1c[nH]c2ccc(O)cc12)NC(=O)[C@H]1CCC[C@H](N)C1)C(=O)NCC(=O)Nc1ccc(N2CCOCC2)cc1 [Compound 8] ({Cyclohexanoyl(1S,3S-3-NH2)}-[Trp(5-OH)][Bip][hArg]G-{NH(4-morpholinophenyl)}) with recombinant EphA4 ligand binding domain (Homo sapiens, UniProt P54764, C204A) was -8.49

Note to self: AH of N=C(N)NCCCC[C@H](NC(=O)[C@H](Cc1ccc(-c2ccccc2)cc1)NC(=O)[C@H](Cc1c[nH]c2ccc(O)cc12)NC(=O)[C@H]1CCC[C@H](N)C1)C(=O)NCC(=O)Nc1ccc(CN2CCOCC2)cc1 [Compound 9] ({Cyclohexanoyl(1S,3S-3-NH2)}-[Trp(5-OH)][Bip][hArg]G-{NHPh(4-CH2-morpholino)}) with recombinant EphA4 ligand binding domain (Homo sapiens, UniProt P54764, C204A) was -7.44

Note to self: AH of COc1ccccc1-c1ccc(C[C@H](NC(=O)[C@H](Cc2c[nH]c3ccc(O)cc23)NC(=O)[C@H]2CCC[C@H](N)C2)C(=O)N[C@@H](CCCCNC(=N)N)C(=O)NCC(=O)Nc2ccc(N3CCOCC3)c(F)c2)cc1 [Compound 16] ({Cyclohexanoyl(1S,3S-3-NH2)}-[Trp(5-OH)][Phe(4-(2-MeO-Ph))][hArg]G-X2) with recombinant EphA4 ligand binding domain (Homo sapiens, UniProt P54764, C204A) was -10.00

Note to self: AH of N=C(N)NCCCC[C@H](NC(=O)[C@H](Cc1ccc(-c2ccccc2)cc1)NC(=O)[C@H](Cc1c[nH]c2ccc(O)cc12)NC(=O)[C@H]1CCC[C@H](N)C1)C(=O)NCC(=O)Nc1ccc(N2CCNCC2)cc1 [Compound 10] ({Cyclohexanoyl(1S,3S-3-NH2)}-[Trp(5-OH)][Bip][hArg]G-X3) with recombinant EphA4 ligand binding domain (Homo sapiens, UniProt P54764, C204A) was -8.27

Note to self: AH of COc1ccc2[nH]cc(C[C@H](NC(=O)[C@H]3CCC[C@H](N)C3)C(=O)N[C@@H](Cc3ccc(-c4ccccc4)cc3)C(=O)N[C@@H](CCCCNC(=N)N)C(=O)NCC(=O)Nc3ccc(CN4CCOCC4)cc3)c2c1 [Compound 4] ({Cyclohexanoyl(1S,3S-3-NH2)}-[Trp(5-OMe)][Bip][hArg]G-{NHPh(4-CH2-morpholino)}) with recombinant EphA4 ligand binding domain (Homo sapiens, UniProt P54764, C204A) was -5.99
